QUANTITY: melting point (°C)

1: O=C(O)/C(=C\c1ccccc1)c1ccccc1[N+](=O)[O-]
2: COC(C)(C)OC
3: CCCCCCCCCCCCCCCC(=O)OCCO
4: O=C(Cl)c1csc(Cc2c(Cl)cccc2Cl)n1
5: O=c1cc2oc3cc(O)c(O)cc3c(-c3ccccc3)c-2cc1O
Enquiry: Order field: melting point | Direction: descending (largest first) Put the labels in the requested order and write them down.
Return: 5, 1, 4, 3, 2

I: NS(=O)(=O)c1ccc(S(=O)(=O)CCO)c(F)c1
II: Cc1ccc(N=c2sccn2C)c(C)c1
III: O=C(O)COC(=O)c1cc(Oc2ccc(C(F)F)cc2Cl)ccc1[N+](=O)[O-]
Enquiry: Rank order required: melting point, descending. Order the labels as requested and give them as your answer.
Return: I, III, II
